The reported measurements were obtained from patent US6083976A.

Molecular target: tyrosinase
Experiment: Tyrosinase activity assay using L-DOPA as a substrate
Type: biochemical
Conditions: L-DOPA 0.4 mM, 48 U tyrosinase, absorbance at 475 nm; read-out: average concentration for 50% tyrosinase inhibition
Procedure: Example 2 illustrates the general method for determination of tyrosinase inhibition by the alkylated aloesins, using octylaloesin for purposes of illustration. A tyrosinase activity assay was performed using L-DOPA as a substrate. […] The progress of the reaction was monitored by measuring the absorbance of the reaction mixture at 475 nm.
property-label: IC50 (µM)
Give the number; µM is assumed, so skip it.

INSERT INTO assay_data (smi, property_label, unit_name, numeric_readout) VALUES
  ('CC(=O)Cc1cc(=O)c2c(C)cc(O)c([C@@H]3O[C@H](CO)[C@@H](O)[C@H](O)[C@H]3O)c2o1', 'IC50', 'µM', 250);

Now turn to the next compound.
# input Please give the measured IC50 for this compound: `CCCCCCCCOc1cc(C)c2c(=O)cc(CC(C)=O)oc2c1[C@@H]1O[C@H](CO)[C@@H](O)[C@H](O)[C@H]1O`
# output 107
